Consider the following variants; for each one, report its protein stability index.
B1: ZMYND11 (parent)
chain: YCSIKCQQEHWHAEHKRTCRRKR

Variants of: B1
test: protein stability index of a GFP-peptide fusion (GPS, HEK-293T) (PSI 1-6); higher = more stable;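 also: lentivirally expressed fusions sorted by FACS into six bins by GFP to DsRed ratio, PSI derived from sequencing read proportions per bin multiplied by bin number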
test context: c terminus: native
Number only, no unit.

Entry YCSIKCQQEHWHAEHKRTCRNKR [R21N] has what protein stability index? 1.98

How about this variant: YCSIKCQQEHWHQEHKRTCRRKR [A13Q] 2.18

How about this variant: YCSIYCQQEHWHAEHKRTCRRKR [K5Y] 2.91

How about this variant: YCAIKCQQEHWHAEHKRTCRRKR [S3A] 1.96

How about this variant: YCSIKCQQEHWHPEHKRTCRRKR [A13P] 1.9

How about this variant: YCSIKCQQEHVHAEHKRTCRRKR [W11V] 3.48

How about this variant: YCSIKCQQEHEHAEHKRTCRRKR [W11E] 4.32

How about this variant: YCSIKCQQEHWHAEHKRTCYRKR [R20Y] 2.28
